All figures here come from ChEMBL document CHEMBL1130662.

- Assayed System: Trypsin (Homo sapiens, UniProt P07477+P07478+P35030)
- Run Description: Inhibition of serine protease trypsin enzyme.
- Type: protein assay, Oryctolagus cuniculus
Readout Name: Ki (nM)
Express it in nM; write the number only.

Example results:
[
  {
    "Smi": "CC(C)OC(=O)CN(c1cccc(C(=N)N)c1)S(=O)(=O)CCc1ccc(-c2ccccc2S(N)(=O)=O)cc1.O=C(O)C(F)(F)F",
    "Unit Of Measure": "nM",
    "Ki": 220
  },
  {
    "Smi": "COC(=O)CN(CCCOc1ccc(-c2ccccc2S(N)(=O)=O)cc1)c1cccc(C(=N)N)c1.O=C(O)C(F)(F)F",
    "Unit Of Measure": "nM",
    "Ki": 77
  },
  {
    "Smi": "N=C(N)c1cccc(N(CCCc2ccc(-c3ccccc3S(N)(=O)=O)cc2)CC(=O)O)c1.O=C(O)C(F)(F)F",
    "Unit Of Measure": "nM",
    "Ki": 470
  },
  {
    "Smi": "COC(=O)CN(CCCc1ccc(-c2ccccc2S(N)(=O)=O)cc1)c1cccc(C(=N)N)c1.O=C(O)C(F)(F)F",
    "Unit Of Measure": "nM",
    "Ki": 39
  },
  {
    "Smi": "N=C(N)c1cccc(NCCCc2ccc(-c3ccccc3S(N)(=O)=O)cc2)c1.O=C(O)C(F)(F)F",
    "Unit Of Measure": "nM",
    "Ki": 850
  },
  {
    "Smi": "N=C(N)c1cccc(NS(=O)(=O)CCc2ccc(-c3ccccc3S(N)(=O)=O)cc2)c1.O=C(O)C(F)(F)F",
    "Unit Of Measure": "nM",
    "Ki": 1400
  },
  {
    "Smi": "N=C(N)c1cccc(N(CCO)CCCc2ccc(-c3ccccc3S(N)(=O)=O)cc2)c1.O=C(O)C(F)(F)F",
    "Unit Of Measure": "nM",
    "Ki": 710
  }
]

# ---- query compound ----
Prompt: What value of Ki has been recorded for this entry: CC(C)OC(=O)CN(CCOc1ccc(-c2ccccc2S(N)(=O)=O)cc1)c1cccc(C(=N)N)c1.O=C(O)C(F)(F)F
Completion: 52

* * *

- Assayed System: Tissue-type plasminogen activator (Homo sapiens, UniProt P00750)
- Sequence (P00750 whole entry): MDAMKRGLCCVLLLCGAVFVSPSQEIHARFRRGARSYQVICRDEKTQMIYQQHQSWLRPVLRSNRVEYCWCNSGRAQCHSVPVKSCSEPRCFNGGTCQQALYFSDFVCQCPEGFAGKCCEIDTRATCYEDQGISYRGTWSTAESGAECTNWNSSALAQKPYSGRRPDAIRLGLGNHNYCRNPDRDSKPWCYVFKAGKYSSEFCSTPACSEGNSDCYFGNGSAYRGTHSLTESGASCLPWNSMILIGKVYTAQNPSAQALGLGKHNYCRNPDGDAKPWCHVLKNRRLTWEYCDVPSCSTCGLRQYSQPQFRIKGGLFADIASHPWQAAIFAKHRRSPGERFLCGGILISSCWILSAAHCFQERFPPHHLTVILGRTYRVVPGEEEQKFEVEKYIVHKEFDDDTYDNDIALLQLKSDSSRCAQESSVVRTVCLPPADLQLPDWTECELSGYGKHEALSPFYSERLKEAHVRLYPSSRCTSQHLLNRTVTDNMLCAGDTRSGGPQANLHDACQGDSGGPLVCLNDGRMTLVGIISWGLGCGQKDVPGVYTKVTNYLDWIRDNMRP
Readout Name: pKi
pKi is a log-scale quantity: -log10 of the concentration expressed in molar.

Prompt: State its pKi on Tissue-type plasminogen activator (Homo sapiens, UniProt P00750): COC(=O)CN(CCCc1ccc(-c2ccccc2S(N)(=O)=O)cc1)c1cccc(C(=N)N)c1.O=C(O)C(F)(F)F
Completion: 4.48

* * *

Sequence of the target: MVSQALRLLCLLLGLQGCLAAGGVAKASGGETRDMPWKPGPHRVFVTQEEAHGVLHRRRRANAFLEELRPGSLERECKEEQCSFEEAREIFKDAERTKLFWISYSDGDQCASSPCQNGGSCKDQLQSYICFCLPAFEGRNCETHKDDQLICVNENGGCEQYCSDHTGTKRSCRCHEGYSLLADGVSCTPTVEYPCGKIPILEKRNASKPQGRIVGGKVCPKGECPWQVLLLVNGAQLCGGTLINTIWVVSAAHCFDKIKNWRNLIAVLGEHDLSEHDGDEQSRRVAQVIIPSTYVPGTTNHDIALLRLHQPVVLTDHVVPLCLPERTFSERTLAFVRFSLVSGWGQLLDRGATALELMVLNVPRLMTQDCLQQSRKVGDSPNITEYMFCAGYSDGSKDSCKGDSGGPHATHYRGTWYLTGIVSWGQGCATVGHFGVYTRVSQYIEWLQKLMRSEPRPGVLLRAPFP
Readout Name: Ki (µM)
Express it in µM; write the number only.

Prompt: What value of Ki has been recorded for this entry: COC(=O)CN(CCCc1ccc(-c2ccccc2S(N)(=O)=O)cc1)c1cccc(C(=N)N)c1.O=C(O)C(F)(F)F
Completion: 4.2
